For each record, write down the corresponding IC50.
# measurement.target: TNFα (Homo sapiens, UniProt P01375)
# Sequence (P01375 77-233 limits assumed): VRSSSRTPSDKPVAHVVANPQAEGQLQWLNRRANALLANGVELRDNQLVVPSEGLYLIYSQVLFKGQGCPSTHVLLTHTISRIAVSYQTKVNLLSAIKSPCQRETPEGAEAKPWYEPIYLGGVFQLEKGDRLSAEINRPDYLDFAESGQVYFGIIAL
# run.description: TNF induced HEK-Blue assay (NF-kB-driven secreted alkaline phosphatase reporter)
# Assay type: cell-based
# measurement.parameters: TNF induced HEK-Blue assay IC50 value, TNFα 0.5 ng/mL, HEK-Blue-CD40L cells, 18 h

// solved cases for IC50 follow
C[C@@H](Nc1c(Cl)cnc2ccc(-c3cnc(N4CCN(CC(=O)O)CC4)nc3)cc12)c1ccccc1F [Example 285] :: < 1 µM
Cc1nc2cc(F)c(-c3cnc(C(C)(C)O)nc3)nc2c(N[C@H](C)c2cc(C#N)ccc2F)c1Cl [Example 586] :: < 1 µM
C[C@@H](Nc1c(Cl)cnc2ccc(-c3cnc(C(C)(C)O)nc3)cc12)c1cc(N)ccc1F [Example 374] :: < 1 µM

The record that follows has no IC50 shown yet.
I looked up CC(C)C(Nc1c(Cl)cnc2ccc(-c3cnc(C(C)(C)O)nc3)cc12)c1ccccc1F (stereo not shown) [Example 189] and its IC50 for TNFα (Homo sapiens, UniProt P01375) was < 1 µM
